# Tested on: A549
# measurement description: NCI tumour cell line growth inhibition, 48 h
The source made the active and inactive calls. No stated cut-off is given here; in the data, active = GI50 up to about 1.1 µM and inactive = higher.
reported property: GI50

Please fill in: GI50 reported for COC1OC(C)C(OCc2ccccc2)C(OS(=O)(=O)c2ccc(C)cc2)C1OS(=O)(=O)c1ccc(C)cc1 (stereo unspecified) = > 100 µM (inactive)

The recorded GI50 for entry CN1C(=O)C(/C=N/NC(=O)c2cccnc2)C(N)N(C)C1=O (stereo unspecified) equals > 100 µM (inactive)

The measured GI50 associated with Cc1ccc(C)c(N2C(=O)C(=O)C(c3nc4ccccc4s3)/C(=N/NC(=O)NN)C2=O)c1 (stereo unspecified) reads > 100 µM (inactive)

Memo: Cc1cc(C)c([S@@](=O)O[C@@H]2[C@H]3OC(C)(C)O[C@H]3O[C@@H]2[C@H]2COC(C)(C)O2)c(C)c1 , reported GI50: 29.4 µM (inactive)

// field: GI50; key: CC(=O)ON(C(C)=O)c1ccc(-c2nc3ccccc3s2)cc1C ; value = 28.7 µM (inactive)

In plain terms, COc1ccccc1CC(=O)C(O)(C(F)(F)F)C(F)(F)F has a documented GI50 of > 100 µM (inactive)

The molecule listed as CCN(CC)CCCCC1CCN(CC(=O)N2c3ccccc3NC(=O)CC2C)CC1 (stereo unspecified) shows GI50 equal to > 100 µM (inactive)

GI50 reading for COC(=O)[C@@]12OC[C@]34C([C@@H](O)C1O)[C@@]1(C)CC(=O)C(OC(=O)/C=C(/c5ccccc5)C(F)(F)F)=C(C)C1C[C@H]3OC(=O)[C@H](O)[C@H]42 (stereo partly specified) : 16.5 µM (inactive)

So for CCOC(=O)CC(NC(=O)c1ccc(/N=N/N(C)C)cc1)C(=O)OCC (stereo unspecified) , the logged GI50 turned out to be > 100 µM (inactive)

GI50 in this record for CC12CC(=O)Nc3ccccc3N1C(c1ccccc1)=NO2 (stereo unspecified) : > 100 µM (inactive)

Per the record, O=C(O)c1nc2nc(Cl)c(Cl)nc2[nH]1 has GI50 of > 100 µM (inactive)

----------
Exercise: for every item that follows, state its recorded GI50.
# System: T47D
# measurement description: NCI tumour cell line growth inhibition, 48 h
Activity calls are given as the source filed them. Cut-off read from the data, not from the text of the source: active = GI50 up to about 1.1 µM and inactive = higher.

Entry COc1cc(-c2cc(=O)c3c(OC)c(OC)c(OC)c(OC)c3o2)cc(OC)c1OC [HEPATAMETHOXYFLAVONE] — recorded GI50 = 12.7 µM (inactive)

In plain terms, Clc1ccc2c(c1)CC1C[N+]3=C(CCCCC3)C1=C2 (configuration not stated) has a documented GI50 of 29.6 µM (inactive)

Per the records, this molecule ( CC[S+]([O-])c1c2cc(OC)ccc2nc2ccc(OC)cc12 (configuration not stated) ) has GI50 equal to 2.62 µM (inactive)

According to the records, this molecule Nc1ccc(-c2ccc(Nc3cc(S(=O)(=O)O)c(N)c4c3C(=O)c3ccccc3C4=O)cc2)c(S(=O)(=O)O)c1 displays GI50 of > 100 µM (inactive)

Lookup result for Cn1c2ccccc2n2c3ncccc3c(=O)c(C#N)c12 ; measured GI50: 15.2 µM (inactive)

get_value(item= CCOC(=O)CNC(=O)C(CCC(=O)N(C)O)NC(=O)CCC(N)C(=O)O (configuration not stated) , readout=GI50) returns > 100 µM (inactive)

Measured GI50, Cc1cccc2c(N)c3cccc(C(=O)NCC[N+]4(Cc5ccc([N+](=O)[O-])cc5)CCOCC4)c3nc12 : 29.2 µM (inactive)

----------
Please provide measured GI50 for the entries that follow.
# System: SK-MEL-5
# measurement description: NCI tumour cell line growth inhibition, 48 h
Activity calls are given as the source filed them. No stated cut-off is given here; in the data, active = GI50 up to about 1.1 µM and inactive = higher.

Query COc1cc(C=C(c2ccc(N(C)C)cc2)c2ccc(N(C)C)cc2)c2ccccc2c1OC yields GI50 of 51.9 µM (inactive)

Given item COC(=O)c1ccc(C)cc1CC1Cc2cccc(C)c2C1=O (configuration not stated) , the value recorded as its GI50 is 3.59 µM (inactive)

In plain terms, CNC(=S)NN=C1NCCCN1 has a documented GI50 of > 100 µM (inactive)

Looking up CC(=O)N(C(C)=O)C1=C2c3ccccc3N(S(=O)(=O)c3ccccc3)C2n2c(=O)n(-c3ccccc3)c(=O)n2C1 (configuration not stated) , I found its GI50 recorded as 27 µM (inactive)

GI50 recorded for this molecule, C/C(=N/NC(=O)C(N)=O)C(CC(C(=O)Nc1ccccc1C)/C(C)=N\NC(=O)C(N)=O)C(=O)Nc1ccccc1C (configuration not stated) , is > 100 µM (inactive)

The reported value for CCOC1=C2C(C)(CCC3[C@@]4(C)C=CC(=O)C(C)(C)C4CC(O)[C@@]23C)C(c2ccoc2)C1=O (some centres not stated) in terms of GI50 is 15.2 µM (inactive)

The reported value for C#CC(O)/C=C/CCCCCCC#CC/C=C\CC#CCCCCCC/C=C/C(O)C#C (configuration not stated) in terms of GI50 is 1.44 µM (inactive)

Measured GI50, CC1=CC(C)(C)Nc2ccc(CSc3ccccc3)cc21 : 17.1 µM (inactive)

Kindly note the recorded GI50 for COc1ccc2c(c1)CC[C@@H]1C2CC[C@]2(C)C(=O)NC(=O)CC12 (some centres not stated) , which is 78.3 µM (inactive)

Query C#CCOCn1cnc2c(S)ncnc21 yields GI50 of > 100 µM (inactive)

Entry O=C1CC(c2ccccc2)[S+]([O-])c2ccccc2N1 (configuration not stated) ; GI50 = > 100 µM (inactive)

Form field GI50, entry CCCCCCc1cc(C(=O)Nc2ccc(Cl)cc2)nc(S)n1 : > 100 µM (inactive)

----------
# Tested on: SW-620
# measurement description: NCI tumour cell line growth inhibition, 48 h
Active and inactive are the calls of the source. No stated cut-off is given here; in the data, active = GI50 up to about 1.1 µM and inactive = higher.
Pick from TRUE for active, FALSE for inactive when you respond.

For this compound, state the assay outcome: Cc1noc(C)c1/N=N/c1ccc2nonc2c1N
FALSE

Dear all, I need the recorded test outcome for CNC(=S)NN=C1NCCCN1 , thank you.
FALSE

I would be grateful if you could indicate the recorded call for Cc1cc(C)c(C(=O)/C(=C/c2ccccc2)c2ccccc2)c(C)c1 .
FALSE

Write down the call the test reported for this compound. Item: CCCCCCCCCCCCCC(=O)OCC1OC(n2cc(F)c(=O)[nH]c2=O)C(N)C(OC(=O)CCCCCCCCCCCCC)C1O (stereo not drawn)
FALSE

Called result for COc1ccccc1NC(=S)N/N=C/c1c(C)n(C)n(-c2ccccc2)c1=O
FALSE

Look up the recorded call for CN(C)C/C=C(/c1ccc(Br)cc1)c1cccnc1 in this test.
FALSE

# lookup: test call for CC(=O)O/C=C\OC1CCCC1(c1ccccc1)c1ccccc1 (stereo not drawn)
FALSE

Just curious, what result did CC[S+]([O-])c1c2cc(OC)ccc2nc2ccc(OC)cc12 (stereo not drawn) get here?
FALSE

Outcome? Nc1cc2nc(O)c(O)nc2cc1N
FALSE

Called result for Cc1ccc(NC(=O)CC(=O)N2N=C(N3CCCCC3)CC2c2ccccc2)cc1 (stereo not drawn)
FALSE

// outcome(item) with item = COc1ccc(/C(C)=C2\CCCN(Cc3ccccc3)C2)cc1
FALSE

Which result was noted for this compound in the test: CC[C@@H]1CC[C@@H]2[C@H](CC[C@]3(C)[C@@H](O)CC[C@@H]23)[C@H]1C(=O)O
FALSE

Lab log entry: CC(NC(=O)Cc1ccccc1)NC(=O)C(C)C(=O)NCc1ccccc1 (stereo not drawn) — outcome as called in the assay?
FALSE

Could you check what this test reported for NC(CSCc1ccc(I)cc1)C(=O)O (stereo not drawn) ?
FALSE

Hello, I am checking results. What call was entered for c1ccc(CSP234N5CCN2CCN3CCN4CC5)c(CSP234N5CCN2CCN3CCN4CC5)c1 ?
FALSE

Could you kindly confirm the outcome this assay logged for CC(=O)Nc1ccc(-c2nc3ccccc3s2)cc1Cl ?
FALSE

// param item: CNC(=S)NNc1ncnc2c1c(-c1ccc(Cl)cc1)cn2-c1ccc(C)cc1 ; yields the recorded call
FALSE

What classification did Cc1nc2sccn2c1C(=O)N/N=C1\SCC(=O)N1C end up with in this test?
FALSE

Write down the call the test reported for this compound. Item: CC1=NN(C(=O)CC(=O)NC(=O)CC(=O)Nc2ccccc2F)C(=O)C1/N=N/c1ccc([N+](=O)[O-])cc1 (stereo not drawn)
FALSE

Lab log entry: Cc1nc2c(Br)cc(Br)cc2c(=O)n1-c1ccccc1NC1OC(CO)C(O)C(O)C1O (stereo not drawn) — outcome as called in the assay?
FALSE

State the result this test recorded for Cc1c(-c2ccccc2)n(C)c2cn[nH]c(=O)c12 .
FALSE

What did the test return for CSC1(Cc2ccccn2)C(=O)Nc2cccc([N+](=O)[O-])c21 (stereo not drawn) ?
FALSE

Please let me know the test result on file for COC(=O)C12C34C=CC5(CCC6(C=CC1(CC3)O6)C52C(=O)OC)O4 (stereo not drawn) .
FALSE

Outcome logged for O=C(O)c1nc2nc(Cl)c(Cl)nc2[nH]1 in this assay:
FALSE

Name the outcome recorded for COc1c(-c2cc(C)c(Cl)c(=O)[nH]2)c(O)c(OC)c2occc12 in the assay.
FALSE

Check the results log: what was the call for CCOC(=O)C1=C(C)NC(=O)NC1c1ccc(N(CCCl)CCCl)cc1Cl (stereo not drawn) ?
FALSE

What is the recorded call for this compound in the test? O=C1Sc2cc3ccccc3cc2C(=O)Sc2ccc(Br)cc21
FALSE

Lab log entry: CC[C@H](C)[C@H]1NC(=O)[C@@H](NC(=O)[C@@H](CC(C)C)N(C)CC2CCCN2C(=O)C(C)=O)[C@@H](C)OC(=O)[C@H](Cc2ccc(OC)cc2)N(C)C(=O)C2CCCN2C(=O)[C@H](CC(C)C)NC(=O)[C@@H](C)C(=O)[C@H](C(C)C)OC(=O)C[C@@H]1O (stereo partly drawn) — outcome as called in the assay?
TRUE

Recorded values, source ChEMBL document CHEMBL1201862.
